assayRemarks: in vivo;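 further: radiolabelled ligand targeting bombesin receptors, given by intravenous injection at varied injected mass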
conditionSummary: rat, bombesin receptor positive tissues, total radioactivity
observedProperty: tissue uptake at 48 h (%ID/g)
Report the value in %ID/g with no unit label.

query: Value lookup for tissue uptake at 48 h; key = CSCC[C@H](NC(=O)[C@H](CC(C)C)NC(=O)[C@H](Cc1c[nH]cn1)NC(=O)CNC(=O)[C@@H](NC(=O)[C@H](C)NC(=O)[C@H](Cc1c[nH]c2ccccc12)NC(=O)[C@H](CCC(N)=O)NC(=O)[C@H](CC(N)=O)NC(=O)CNC(=O)[C@H](Cc1ccc(O)cc1)NC(=O)[C@H](CCCNC(=N)N)NC(=O)[C@H](CCC(N)=O)NC(=O)[C@@H]1CCCN1C(=O)CN(CCN(CCN(CC(=O)O)CC(=O)O)CC(=O)O)CC(=O)O)C(C)C)C(N)=O [[^111In-DTPA^0, Pro^1, Tyr^4] bombesin, metal not drawn]
result: 0.025
